Please respond with reported Cmax for every item in the list.
Assay: Cmax in Sprague-Dawley rat at 10 mg/kg, po dosed as aqueous suspension of Labrafil M 1944CS/DMAC/polysorbate 80, 85:10:5 (v/v) after 2 to 4 hrs by LC/MS/MS analysis
Format: ADME, organism-based
Parameters: dose 10 mg/kg, route oral
Settings: in vivo
Give the value in nM but do not write nM after it.

Prompt: Sample CC[C@H](C1CC1)n1cc(C#N)nc(Nc2cc(C)c(OC)nc2C)c1=O — what was its Cmax?
Response: 590

Prompt: Ok, now COC[C@H](C1CC1)n1cc(Cl)nc(Nc2cc(C)c(OC(F)F)nc2C)c1=O
Response: 1300

Prompt: Ok, now Cc1cc(Nc2nc(C#N)cn([C@H](C)C3CC3)c2=O)c(C)nc1OC(F)F
Response: 1400

Prompt: Ok, now COC[C@H](C1CC1)n1cc(C#N)nc(Nc2cc(C)c(OC(F)F)nc2C)c1=O
Response: 1600

Prompt: Ok, now COC[C@@H](C1CC1)n1cc(Cl)nc(Nc2cc(C)c(OC(F)F)nc2C)c1=O
Response: 440

Prompt: Ok, now COC[C@H](C1CC1)n1cc(Cl)nc(Nc2cc(C)c(OC)nc2C)c1=O
Response: 510

---

System: Rattus norvegicus
Assay: Total plasma concentration in Sprague-Dawley rat at 3 mg/kg, po after 1 to 3 hrs by LC/MS/MS analysis
Assay type: ADME, organism-based
Parameters: dose 3 mg/kg, route oral
Settings: in vivo
Property Label: concentration (nM)
Give the value in nM but do not write nM after it.

Prompt: Sample COC[C@H](C1CC1)n1cc(C#N)nc(Nc2cc(C)c(OC(F)F)nc2C)c1=O — what was its concentration?
Response: 140

---

Experiment: Metabolic stability in human liver microsomes assessed as compound remaining at 3 uM after 10 mins by HPLC/UV/MS analysis
Type: ADME, Microsome
Conditions: read-out: Stability
Please respond with reported remaining at 10 min, 3 µM for every item in the list.
Give the value in % but do not write % after it.

Prompt: Sample COC[C@@H](C1CC1)n1cc(C#N)nc(Nc2cc(C)c(OC(F)F)nc2C)c1=O — what was its remaining at 10 min, 3 µM?
Response: 78

Prompt: Ok, now CC[C@H](C1CC1)n1cc(Cl)nc(Nc2cc(C)c(OC)nc2C)c1=O
Response: 51

Prompt: Ok, now CC[C@H](C1CC1)n1cc(Cl)nc(Nc2cc(C)c(OC(F)F)nc2C)c1=O
Response: 100

Prompt: Ok, now COc1nc(C)c(Nc2nc(C#N)cn([C@H](C)C3CC3)c2=O)cc1C
Response: 99

Prompt: Ok, now COC[C@H](C1CC1)n1cc(C#N)nc(Nc2cc(C)c(OC(F)F)nc2C)c1=O
Response: 74

---

Test: Half life in Beagle dog at 2 mg/kg, iv by LC/MS/MS analysis
Type: ADME, organism-based, Canis lupus familiaris
Set-up: dose 2 mg/kg, route intravenous
Conditions: in vivo
Property Label: half-life

Prompt: Sample COC[C@H](C1CC1)n1cc(C#N)nc(Nc2cc(C)c(OC(F)F)nc2C)c1=O — what was its half-life?
Response: 30 h

---

Biological target: UniProtKB P34998
Sequence (P34998 whole entry): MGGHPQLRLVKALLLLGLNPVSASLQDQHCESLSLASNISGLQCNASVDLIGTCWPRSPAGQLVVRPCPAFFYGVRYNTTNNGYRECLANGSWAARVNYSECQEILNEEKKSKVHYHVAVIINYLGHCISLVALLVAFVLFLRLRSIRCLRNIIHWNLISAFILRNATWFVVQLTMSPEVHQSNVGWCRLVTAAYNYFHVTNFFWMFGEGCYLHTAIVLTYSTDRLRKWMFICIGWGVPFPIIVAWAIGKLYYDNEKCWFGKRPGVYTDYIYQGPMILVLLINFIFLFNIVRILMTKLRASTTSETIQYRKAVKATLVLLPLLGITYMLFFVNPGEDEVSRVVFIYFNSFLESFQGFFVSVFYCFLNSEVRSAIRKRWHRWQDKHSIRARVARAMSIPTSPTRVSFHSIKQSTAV
Test: Antagonist activity at CRF1 receptor in human Y79 cells assessed as inhibition of CRF-stimulated cAMP production after 30 mins by HTRF analysis
Property Label: IC50 (nM)
Give the value in nM but do not write nM after it.

Prompt: Sample COC[C@H](C1CC1)n1cc(C#N)nc(Nc2cc(C)c(OC(F)F)nc2C)c1=O — what was its IC50?
Response: 1.9
